experiment: melting temperature; fluorescence melt of hairpins on a sequencing array, two-state fit, raised by 9.35 °C to match UV melts; conditions: sodium 0.088 M
Property Measured: Tm (°C)

INSERT INTO measurements (sequence_string, data_value) VALUES
  ('GGTGGAGGAAACTCCGTC (..((((....))))..)', 37.8),
  ('GCCCTCGGAAACGAGGAC (.(((((....))))).)', 50.3),
  ('GCTACCGAAAGGTAGAGC ((((((....)))..)))', 53.7),
  ('GTAGATCGAAAGATTTAC (((.(((....))).)))', 39.5),
  ('GATCACGAAAGTGATATC ((((((....)))..)))', 50.5),
  ('GATCCATGAGTGGATC ((((((....))))))', 55),
  ('GCCCGGTCGAAAGACGGC (((..(((....))))))', 51.7),
  ('GAAGGCGAAAGCCCGTTC ((((((....)))..)))', 27.2),
  ('GCGGGCGAAAGCCCACGC ((((((....)))..)))', 65.5),
  ('GCAAAGGGAAACCTTTGC (((((((....)))))))', 64.1),
  ('GTCGGCACGAAAGTGGAC (((..(((....))))))', 34.7),
  ('TGTAAGAAATTACA (((((....)))))', 20.6);

* * *

experiment: folding enthalpy; higher = less favourable; fluorescence melt of hairpins on a sequencing array, two-state fit; conditions: sodium 0.088 M
So basically every entry gets a class from its folding enthalpy, ranges being lower band: < -30 kcal/mol; central band: ≥ -30 kcal/mol and < -20 kcal/mol; upper band: ≥ -20 kcal/mol

INSERT INTO results (sequence_string, category) VALUES
  ('GATCATTCTAATGATC ((((((....))))))', 'lower band'),
  ('GCTTGGAAACAAGC (((((....)))))', 'lower band'),
  ('GATCCACTCTGGATC ((((((...))))))', 'lower band'),
  ('GATCACGAAAGTGATATC ((((((....)))..)))', 'upper band'),
  ('GATGTGAAAACATC (((((....)))))', 'central band'),
  ('GGAGTCGAAAGACTTCC ((((((....))).)))', 'central band'),
  ('GCTTCATCGAAAGATAGC (((..(((....))))))', 'upper band'),
  ('GAGGCGGGAAACTGCCTC (((((.(....).)))))', 'lower band'),
  ('GGATACGAAAGTATATCC ((((((....)))..)))', 'upper band'),
  ('GCCTGCGAAAGCATAGGC ((((((....)))..)))', 'lower band'),
  ('GATATCGGAAACGACATC (((.(((....))).)))', 'central band'),
  ('GCCCCGCGAAAGCCCGGC (((..((....))..)))', 'upper band'),
  ('GCAATCGCGAAAGCGTGC (((..(((....))))))', 'upper band'),
  ('GGTGAGGAAACTCACC ((((((....))))))', 'lower band'),
  ('GATCGTGGTACGATC ((((((...))))))', 'lower band'),
  ('GGCAACGGAAACGTCACC ((..(((....)))..))', 'upper band'),
  ('GCTCTCGAAAGAGATAGC ((((((....)))..)))', 'central band'),
  ('GATCATATAATGATC ((((((...))))))', 'lower band'),
  ('GGACTTGGAAACGAGTCC (((((.(....).)))))', 'lower band'),
  ('GGTCTCGCGAAAGCGACC (((..(((....))))))', 'upper band'),
  ('GCAGCACGAAAGTGATGC (((.(((....))).)))', 'lower band'),
  ('GCTGACGAAAGTCAGAGC ((((((....)))..)))', 'upper band'),
  ('GTACAGGGAAACCTGCAC ((.((((....)))).))', 'central band');

Where these numbers come from: the array DNA melting data of Ke et al. (doi:10.1101/2024.01.08.574731)
